Hello, the source for this data is patent US20250313621A1, in case you need it.

Biological target: T1, Wildtype human PAR2 expressed on cells (human, UniProt P55085 37-397)
T1 sequence: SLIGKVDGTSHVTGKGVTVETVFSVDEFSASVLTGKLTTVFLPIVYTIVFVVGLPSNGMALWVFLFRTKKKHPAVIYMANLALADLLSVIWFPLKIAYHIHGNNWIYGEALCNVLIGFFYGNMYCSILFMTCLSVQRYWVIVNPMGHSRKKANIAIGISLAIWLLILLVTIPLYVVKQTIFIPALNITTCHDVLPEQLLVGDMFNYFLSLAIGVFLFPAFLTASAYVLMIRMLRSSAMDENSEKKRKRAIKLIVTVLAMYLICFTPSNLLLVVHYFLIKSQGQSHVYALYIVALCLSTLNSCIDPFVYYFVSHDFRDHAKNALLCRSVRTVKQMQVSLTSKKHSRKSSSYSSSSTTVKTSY
Test: cell-based or functional assay
Entries and their % Max Inhibition, Bovine Trypsin challenge, IP-One
Write the number in % without appending the unit.

### Prompt Please look up its % Max Inhibition, Bovine Trypsin challenge, IP-One: Y022870 (antibody, human IgG1, lambda, V domains shown, also called Y22870) VH: EVQLLESGGGLVQPGGSLRLSCAASGFSFSRYAITWVRQAPGKGLEWVSTISALGLETYYAESVRGRFTISRDNSKNTLYLQMNSLRAEDTAVYYCARGFHYTHSGKRYYYPFDIWGQGTLVTVSS VL: QSALTQPASVSGSPGQSITISCTGTSSDVGSYNLVSWYQQHPGKAPKLMIYEGSKRPSGVSNRFSGSKSGNTASLTISGLQAEDEADYYCSQYATFIAFAVFGGGTKLTVLG
### Response 10

### Prompt Now consider Y022883 (antibody, human IgG1, lambda, V domains shown, also called Y22883; Y02283) VH: EVQLLESGGGLVQPGGSLRLSCAASGFSFTRYAISWVRQAPGKGLEWVSVISGHGSEANYAESVKGRFTISRDNSKNTLYLQMNSLRAEDTAVYYCARGFHYTHSGKRYYYPFDIWGQGTLVTVSS VL: QSALTQPASVSGSPGQSITISCTGTSSDVGSYNLVSWYQQHPGKAPKLMIYEGSKRPSGVSNRFSGSKSGNTASLTISGLQAEDEADYYCSQYATFIAFAVFGGGTKLTVLG .
### Response 48

Could you now consider this next binder?
### Prompt Please look up its % Max Inhibition, Bovine Trypsin challenge, IP-One: Y021171 (antibody, V domains shown) VH: EVQLVESGGGLVKPGGSLRLSCAASGFTFSSYSINWVRQAPGKGLEWVSSISSSSSYTYYAESVKGRFTISRDNAKNSLYLQMNSLRAEDTAVYYCARAASGFAIFDYWGQGTLVTVSS VL: DIQMTQSPSSVSASVGDRVTITCRASQGISSWLAWYQQKPGKAPKLLIYAASSLQSGVPSRFSGSGSGTDFTLTISSLQPEDFATYYCQQTHYVPLTFGQGTKVEIKR
### Response 19
